- assay.overview: physchem
- Type: physicochemical
- assay.setup: pH 7.4, aqueous buffer
measurement.label: solubility (µg/mL)

INSERT INTO measurements (compound, unit_descriptor, reported_result) VALUES
  ('CO[C@H]1C[C@@H]2CC[C@@H](C)[C@@](O)(O2)C(=O)C(=O)N2CCCC[C@H]2C(=O)O[C@H]([C@H](C)C[C@@H]2CC[C@H](n3cnnn3)[C@H](OC)C2)CC(=O)[C@H](C)/C=C(\C)[C@@H](O)[C@@H](OC)C(=O)[C@H](C)C[C@H](C)/C=C/C=C/C=C/1C [zotarolimus]', 'µg/mL', 0.53);
